# measurementTarget: human recombinant LPA1 Lysophospholipid receptor (Homo sapiens)
# Sequence (Q92633 whole entry): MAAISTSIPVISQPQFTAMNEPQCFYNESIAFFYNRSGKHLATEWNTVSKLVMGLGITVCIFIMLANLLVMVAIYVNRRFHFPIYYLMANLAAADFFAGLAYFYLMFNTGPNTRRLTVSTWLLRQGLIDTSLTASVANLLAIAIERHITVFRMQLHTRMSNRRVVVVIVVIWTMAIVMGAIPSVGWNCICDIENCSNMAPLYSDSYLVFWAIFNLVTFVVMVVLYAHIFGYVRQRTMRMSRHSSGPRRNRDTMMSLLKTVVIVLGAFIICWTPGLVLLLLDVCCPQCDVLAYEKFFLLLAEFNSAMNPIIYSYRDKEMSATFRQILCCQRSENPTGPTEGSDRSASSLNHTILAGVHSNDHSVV
# assayProcedure: Calcium flux assay using FLIPR, LPA1 antagonist activity
# conditionDescription: ChemiScreen calcium-optimized stable cell line, inhibition of agonist-induced calcium flux
pIC50: −log10 of the molar value.
propertyLabel: pIC50

>>> experimentalvalue("N#Cc1cnn(/C(=N/C2CCCC2)C(=O)c2ccc(Br)cc2)c1N [Example 3]")
5.53

1. COc1ccc(C(=O)/C(=N\C2CCCC2)n2ncc(C#N)c2N)c(OC)c1 [Example 1]
2. COc1cc2ccccc2cc1C(=O)/C(=N\C1CCCC1)n1ncc(C#N)c1N [Example 7]
3. COc1cc(OC)c(C(=O)/C(=N\C2CCCC2)n2ncc(C#N)c2N)cc1OC [Example 6]
Order by pIC50, ascending. Rank them, then answer with their labels in that order.
3, 2, 1
(3: 5.47, 2: 6.09, 1: 7.10)

a. COc1ccc(C(=O)/C(=N\C2CCCC2)n2ncc(C#N)c2N)c(F)c1 [Example 5]
b. CCc1ccc(C(=O)/C(=N\C2CCCC2)n2ncc(C#N)c2N)cc1 [Example 2]
Pick one: a or b . Which one has the lower reported pIC50? Pick one; state its label.
b
(b: 6.23, a: 7.13)

A. COc1ccc(C(=O)/C(=N\C(C)C)n2ncc(C#N)c2N)c(OC)c1 [Example 10]
B. COc1cc2c(cc1C(=O)/C(=N\C1CCCC1)n1ncc(C#N)c1N)CCC2 [Example 8]
C. COc1ccc(C(=O)/C(=N\C2CCCCC2)n2ncc(C#N)c2N)c(OC)c1 [Example 9]
Sort the 3 compounds by pIC50; largest first, smallest last. Rank them, then answer with their labels in that order.
A, C, B
(A: 6.95, C: 6.29, B: 6.08)
